- Test system: SK-MEL-2 melanoma
- PROTOCOL_DESCRIPTION: NCI tumour cell line growth inhibition, 48 h; in the data active = GI50 below about 0.43 µM; inactive = the rest
Pick one and only one: Yes = active, No = inactive

Assay result, entry O=C1CCC(N2C(=O)c3cccc(NCCCC4CCN(CCNC(=O)c5cc6c(o5)C(=O)c5ccccc5C6=O)CC4)c3C2=O)C(=O)N1 (stereo not given) — outcome? No

Assay result, entry O=C(Nc1cnc(C(F)(F)F)cn1)c1cc(Cl)ccc1O — outcome? Yes

Assay result, entry COc1cccc(C2C(C#N)=C(N)Oc3c2ccc2ccccc32)c1 (stereo not given) — outcome? Yes

Assay result, entry N=C(N)c1ccc(-c2ccc(-c3ccc(Cl)cc3)s2)nc1 — outcome? No

Assay result, entry CCN(CC)CCCC(C)Nc1c(-c2ccccc2)cnc2cc(Cl)ccc12 (stereo not given) — outcome? No

###

- Tested on: COLO 205 colon
- PROTOCOL_DESCRIPTION: NCI tumour cell line growth inhibition, 48 h
Record form. Attribute: TGI. Fill in for each entry.

What value of TGI has been recorded for this entry: CCNc1ncnc2c1nnn2CC > 100 µM

What value of TGI has been recorded for this entry: CCOP(=O)(OCC)C1(O)CC(n2cc(C)c(=O)[nH]c2=O)OC1CO (stereo unspecified) > 100 µM

What value of TGI has been recorded for this entry: O=C1CSC(c2ccccc2O)N1c1nnc(Cn2ccnc2)o1 (stereo unspecified) 45.7 µM

What value of TGI has been recorded for this entry: Nc1n[nH]c2ccc([C@@H]3Nc4cc5[nH]ncc5cc4[C@H]4C5CCC(C5)[C@@H]34)cc12 (stereo partly specified) > 40.6 µM

What value of TGI has been recorded for this entry: COc1ccc(/C(=N/Nc2nc3ccccc3[nH]2)C(=O)O)cc1 > 100 µM

What value of TGI has been recorded for this entry: CNC(=S)N/N=C(\C)c1nc2ncccc2[nH]1 > 100 µM

What value of TGI has been recorded for this entry: Nc1n[nH]c(N)c1N=Nc1ccc(O)cc1 54.2 µM

What value of TGI has been recorded for this entry: COC(=O)/C(C#N)=C1\CCc2ccccc21 > 100 µM

What value of TGI has been recorded for this entry: Nc1ccc(C(=O)N/C(=C\c2cccc([N+](=O)[O-])c2)c2nc3ccc(Cl)cc3[nH]2)cc1 > 100 µM

What value of TGI has been recorded for this entry: C=CCCCOC1[C@H](OCc2ccccc2)C(OCc2ccccc2)C(OC)O[C@@H]1CNC(=O)c1cccc(I)c1 (stereo partly specified) > 100 µM

What value of TGI has been recorded for this entry: CC(=O)[CH-]C(=O)Nc1ccccc1.CC(=O)[CH-]C(=O)Nc1ccccc1.CC[O-].CC[O-].[Ti+4] > 100 µM

###

- Test system: CCRF-CEM leukemia
- PROTOCOL_DESCRIPTION: NCI tumour cell line growth inhibition, 48 h
OUTCOME_MEASURE: TGI (µM)
Just the number please, in µM, no unit attached.

What value of TGI has been recorded for this entry: CC1(C)CCCCCCCCCC(C)(CCCCCCCCCCCCO)C1=O (stereo not given) 50.7

What value of TGI has been recorded for this entry: COc1cccc(CC(C)=C(c2ccc(OCCCN(C)C)cc2)c2ccc(OCCCN(C)C)cc2)c1 1.13

What value of TGI has been recorded for this entry: CCN1CCCC(Nc2cc(C)nc(/N=C(/N)Nc3ccc(Cl)c(Cl)c3)n2)C1 (stereo not given) 2.4

What value of TGI has been recorded for this entry: C=C1C(=O)O[C@H]2[C@H]1CC/C(CNC(=O)/C=C/c1ccccc1)=C\CC[C@@]1(C)O[C@@H]21 1.3

What value of TGI has been recorded for this entry: COC(=O)/C(=C\c1ccco1)P(=O)(OC)OC 94.2

What value of TGI has been recorded for this entry: N.N.N.N.N.O=S(=O)([O-])C(F)(F)F.O=S(=O)([O-])C(F)(F)F.[Os+8] 40.6

What value of TGI has been recorded for this entry: COc1ccc2c(c1)C(=O)c1c-2c(N2CCNCC2)nc2ccccc12 2.94

What value of TGI has been recorded for this entry: Cc1oc2c(c1C(=O)N1CC[C@@H](N)C1)C(=O)c1c(c(O)c3ccccc3c1O)C2=O 4.33

###

- Tested on: HCT-15 colon
- PROTOCOL_DESCRIPTION: NCI tumour cell line growth inhibition, 48 h; in the data active = GI50 below about 0.43 µM; inactive = the rest
Pick one and only one: 1 = active, 0 = inactive

Assay result, entry O=c1c(O)cccn1CCCN(CCCn1cccc(O)c1=O)CCn1cccc(O)c1=O — outcome? 0

Assay result, entry CCN1C(=O)N(CC)C2C1NN=c1s/c(=C\c3ccc[nH]3)c(=O)n12 (configuration not stated) — outcome? 1

Assay result, entry Cc1oc2c(c1C(=O)N1CC[C@@H](N)C1)C(=O)c1c(c(O)c3ccccc3c1O)C2=O — outcome? 0

Assay result, entry CC/C=C\C/C=C/C=C1/C(=O)C=C[C@@H]1C/C=C\CCCC(=O)OC — outcome? 0

Assay result, entry Cc1cc(NC(=O)c2cnc(N3CCN(CCOCCOCCOCCOCCC(=O)N[C@H](C(=O)N4C[C@H](O)C[C@H]4C(=O)N[C@@H](C)c4ccc(-c5scnc5C)cc4)C(C)(C)C)CC3)cn2)c2ncccc2c1 — outcome? 0

Assay result, entry O=C1/C(=C/c2cccc(Br)c2)COc2ccc(O)c(O)c21 — outcome? 0

Assay result, entry CN(c1ccc(C#N)c(Cl)c1)C1CCC(NC(=O)c2ccc(N3CCN(C4CN(c5ccc6c(c5)C(=O)N(C5CCC(=O)NC5=O)C6=O)C4)CC3)cc2)CC1 (configuration not stated) — outcome? 0

###

Record form. Attribute: TGI. Fill in for each entry.
- System: HOP-18 NSCLC
- PROTOCOL_DESCRIPTION: NCI tumour cell line growth inhibition, 48 h

Any idea what TGI came out for O=[N+]([O-])c1ccc2c(Nc3ccccc3-c3ccccc3Nc3c4ccccc4nc4cc([N+](=O)[O-])ccc34)c3ccccc3nc2c1 on HOP-18 NSCLC? > 100 µM

Any idea what TGI came out for CCCCCCCCCCCCCP(=O)(NCC(N)=O)OCC (configuration not stated) on HOP-18 NSCLC? 14.8 µM

Any idea what TGI came out for CCC1C(=O)OCc2c1cc1n(c2=O)C(CC)c2c-1nc1ccccc1c2Cl (configuration not stated) on HOP-18 NSCLC? 98.2 µM

Any idea what TGI came out for O=C(O)COc1ccc(C(=O)/C(SS/C(C(=O)c2ccc(OCC(=O)O)c(Cl)c2Cl)=C2\C=C(c3ccc(Br)cc3)SS2)=C2/C=C(c3ccc(Br)cc3)SS2)c(Cl)c1Cl on HOP-18 NSCLC? 39.9 µM

Any idea what TGI came out for NC(=O)C12CC3CC(CC(Br)(C3)C1)C2 on HOP-18 NSCLC? > 100 µM

Any idea what TGI came out for COC(=O)C#CCC1CCCC1C1SCCS1 (configuration not stated) on HOP-18 NSCLC? > 100 µM

Any idea what TGI came out for O=C(CCc1nc(=S)[nH][nH]1)Nc1cccc(C(F)(F)F)c1 on HOP-18 NSCLC? > 100 µM

###

- Tested on: XF 498 CNS
- PROTOCOL_DESCRIPTION: NCI tumour cell line growth inhibition, 48 h
OUTCOME_MEASURE: TGI

What value of TGI has been recorded for this entry: Cc1nc2ccccc2c(=O)n1/N=C(\N=Nc1cccc(Cl)c1)c1ccccc1Cl 3.91 µM

What value of TGI has been recorded for this entry: O=C(O)[C@@H](NS(=O)(=O)c1ccc2ccccc2c1)c1ccccc1 > 100 µM

What value of TGI has been recorded for this entry: Nc1ncnc2c1nnn2C1C=C(CO)C(O)C1O (configuration not stated) > 100 µM

What value of TGI has been recorded for this entry: Nc1ccc(C(=O)N/C(=C\c2cccc([N+](=O)[O-])c2)c2nc3ccc(Cl)cc3[nH]2)cc1 > 100 µM

What value of TGI has been recorded for this entry: O=C(CCc1nc(=S)[nH][nH]1)Nc1cccc(C(F)(F)F)c1 > 100 µM

What value of TGI has been recorded for this entry: O=C(COc1ccc(Cl)cc1)N1CCN(C(=O)COc2ccc(Cl)cc2)c2ccccc21 > 100 µM

What value of TGI has been recorded for this entry: O=NN(CCCl)C(=O)NC1CCC(=O)NC1=O (configuration not stated) 265 µM

###

Record form. Attribute: TGI. Fill in for each entry.
- Test system: HT29 colon
- PROTOCOL_DESCRIPTION: NCI tumour cell line growth inhibition, 48 h

What value of TGI has been recorded for this entry: CCOC(=O)c1c(NCc2ccccc2)n(-c2ccccc2)c(=S)n(-c2ccccc2)c1=O > 100 µM

What value of TGI has been recorded for this entry: CC(=O)NNc1nc(C)c(C(=O)/C=C/c2ccc(/C=C/C(=O)c3sc(NNC(C)=O)nc3C)cc2)s1 > 100 µM

What value of TGI has been recorded for this entry: Cc1ccnc(NC(=S)Nc2cccc(Cl)c2)c1 > 100 µM

What value of TGI has been recorded for this entry: Cc1c2ccncc2c(C)c2c1c1cc(CO)ccc1n2C 1.78 µM

What value of TGI has been recorded for this entry: O=C(CCc1nc(=S)[nH][nH]1)Nc1cccc(C(F)(F)F)c1 > 100 µM

What value of TGI has been recorded for this entry: CC1=NN(C(=O)c2ccc(Cl)cc2)C(=O)/C1=C/c1ccc(Cl)cc1 > 100 µM

What value of TGI has been recorded for this entry: Cc1ccc(N=C2SC(c3ccc(C)cc3)(c3ccc(C)cc3)c3ccccc32)cc1 > 100 µM

What value of TGI has been recorded for this entry: CCOC(=O)c1c(N2CCOCC2)[nH]c(=O)c(C(c2cccs2)c2c(O)c(C(=O)OCC)c(N3CCOCC3)[nH]c2=O)c1O > 100 µM

What value of TGI has been recorded for this entry: O=C(O)c1cc(Cl)cc2c1NC1(N2)C(=O)Nc2ccccc21 (stereo unspecified) > 100 µM

What value of TGI has been recorded for this entry: COC(=O)/C=C/c1cc(OC)c2oc(-c3ccc(OC)c(OC)c3)c(C(=O)OC)c2c1 > 100 µM

What value of TGI has been recorded for this entry: CN(c1ccc(C#N)c(Cl)c1)C1CCC(NC(=O)c2ccc(N3CCN(C4CN(c5ccc6c(c5)C(=O)N(C5CCC(=O)NC5=O)C6=O)C4)CC3)cc2)CC1 (stereo unspecified) > 100 µM

What value of TGI has been recorded for this entry: CCn1c2ccc(O)c(C(=O)OC)c2c2cc3ccccc3c(O)c21 56.2 µM

What value of TGI has been recorded for this entry: COc1ccc(Cc2nc3ccccc3s2)cc1OC 35.8 µM

What value of TGI has been recorded for this entry: COC1(C)C(=O)N2C1N(C(=O)OCc1ccccc1)CC2(C)C (stereo unspecified) > 100 µM

What value of TGI has been recorded for this entry: CC1=C(C(=O)Nc2ccc(F)c(Cl)c2)C(c2ccccc2O)NC(=O)N1 (stereo unspecified) > 100 µM

What value of TGI has been recorded for this entry: OCc1ccc(N2CCCC2)cc1Cl 76.4 µM
